Reported values of IC50 for individual entries
molecular target: MMP-2FL (Homo sapiens, UniProt P08253)
Sequence (P08253 110-660): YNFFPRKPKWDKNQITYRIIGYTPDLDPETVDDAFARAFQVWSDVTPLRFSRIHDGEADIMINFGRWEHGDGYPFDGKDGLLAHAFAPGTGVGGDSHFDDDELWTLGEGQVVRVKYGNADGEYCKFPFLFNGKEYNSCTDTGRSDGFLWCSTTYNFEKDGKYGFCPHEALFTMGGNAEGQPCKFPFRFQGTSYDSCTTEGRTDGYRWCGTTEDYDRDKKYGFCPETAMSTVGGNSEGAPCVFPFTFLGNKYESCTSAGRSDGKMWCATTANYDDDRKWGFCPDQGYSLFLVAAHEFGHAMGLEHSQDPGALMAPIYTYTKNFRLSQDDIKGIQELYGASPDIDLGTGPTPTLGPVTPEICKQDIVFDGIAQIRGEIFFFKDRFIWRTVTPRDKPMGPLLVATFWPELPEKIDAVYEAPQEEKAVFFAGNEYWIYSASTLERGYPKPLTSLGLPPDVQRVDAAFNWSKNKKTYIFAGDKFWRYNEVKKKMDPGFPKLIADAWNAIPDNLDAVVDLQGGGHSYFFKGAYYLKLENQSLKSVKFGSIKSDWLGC
Kindly answer with a numeric value in nM, unit omitted.

CC1(C)C(C(=O)NO)N(S(=O)(=O)c2ccc3c4c(oc3c2)CCCCC4)CCS1(=O)=O (centres unmarked) [Example 7]    220

Please find the next molecule below.
// query Return reported IC50; argument: CC1(C)C(C(=O)O)N(S(=O)(=O)c2ccc3c4c(oc3c2)CCCCC4)CCS1(=O)=O (centres unmarked) [Example 6]
// result 600

* * *

MMP-14CD (Homo sapiens): recorded pIC50 for assorted molecules
pIC50 here is simply -log10 of the concentration when that concentration is written in mol/L.

Example cases with answers are listed next.
CC1(C)C(C(=O)NO)N(S(=O)(=O)c2ccc3c4c(oc3c2)CCCCC4)CCS1(=O)=O (stereo not shown) [Example 7]    7.28
CC1(C)SCCN(S(=O)(=O)c2ccc3c4c(oc3c2)CCCC4)[C@H]1C(=O)O [Example 3]    6.82
CC1(C)C(C(=O)O)N(S(=O)(=O)c2ccc3c4c(oc3c2)CCCCC4)CCS1(=O)=O (stereo not shown) [Example 6]    7.03

// query pIC50 lookup needed for CC1(C)SCCN(S(=O)(=O)c2ccc3c4c(oc3c2)CCCC4)[C@H]1C(=O)NO [Example 4] , thanks.
// result 7.28

* * *

Target: MMP-7FL (Homo sapiens)
Sequence (P09237 95-267): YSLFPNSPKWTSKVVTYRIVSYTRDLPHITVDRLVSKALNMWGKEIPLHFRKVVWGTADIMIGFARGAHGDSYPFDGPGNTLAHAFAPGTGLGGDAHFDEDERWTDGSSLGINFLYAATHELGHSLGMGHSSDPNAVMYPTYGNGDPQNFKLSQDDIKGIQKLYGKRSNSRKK
OBSERVABLE: IC50 (µM)
Record the value in µM, omitting the unit from your answer.

CC1(C)C(C(=O)O)N(S(=O)(=O)c2ccc3c4c(oc3c2)CCCCC4)CCS1(=O)=O (centres unmarked)    41

Attention now shifts to the item below.
// query Notebook entry, MMP-7FL (Homo sapiens) assay: IC50 of CC1(C)SCCN(S(=O)(=O)c2ccc3c4c(oc3c2)CCCC4)[C@H]1C(=O)NO = ?
// result 0.23

* * *

List of IC50 values.
target: MMP-3CD (Homo sapiens, UniProt P08254)
Sequence (P08254 100-272 limits assumed): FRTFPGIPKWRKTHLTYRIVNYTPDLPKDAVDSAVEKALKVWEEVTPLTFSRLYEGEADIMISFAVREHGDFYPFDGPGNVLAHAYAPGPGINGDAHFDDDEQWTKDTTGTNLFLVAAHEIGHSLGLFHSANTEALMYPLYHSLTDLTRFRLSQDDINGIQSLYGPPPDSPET
I only need the number, in nM, no unit after it.

CC1(C)C(C(=O)O)N(S(=O)(=O)c2ccc3c4c(oc3c2)CCCCC4)CCS1(=O)=O (centres unmarked) [Example 6]    37

// query What IC50 appears in the records for this compound with MMP-3CD (Homo sapiens, UniProt P08254)? CC1(C)SCCN(S(=O)(=O)c2ccc3c4c(oc3c2)CCCC4)[C@H]1C(=O)NO [Example 4]
// result 9

* * *

Each record here notes measured IC50.
biological target: MMP-9FL (Homo sapiens)
Sequence (P14780 94-707): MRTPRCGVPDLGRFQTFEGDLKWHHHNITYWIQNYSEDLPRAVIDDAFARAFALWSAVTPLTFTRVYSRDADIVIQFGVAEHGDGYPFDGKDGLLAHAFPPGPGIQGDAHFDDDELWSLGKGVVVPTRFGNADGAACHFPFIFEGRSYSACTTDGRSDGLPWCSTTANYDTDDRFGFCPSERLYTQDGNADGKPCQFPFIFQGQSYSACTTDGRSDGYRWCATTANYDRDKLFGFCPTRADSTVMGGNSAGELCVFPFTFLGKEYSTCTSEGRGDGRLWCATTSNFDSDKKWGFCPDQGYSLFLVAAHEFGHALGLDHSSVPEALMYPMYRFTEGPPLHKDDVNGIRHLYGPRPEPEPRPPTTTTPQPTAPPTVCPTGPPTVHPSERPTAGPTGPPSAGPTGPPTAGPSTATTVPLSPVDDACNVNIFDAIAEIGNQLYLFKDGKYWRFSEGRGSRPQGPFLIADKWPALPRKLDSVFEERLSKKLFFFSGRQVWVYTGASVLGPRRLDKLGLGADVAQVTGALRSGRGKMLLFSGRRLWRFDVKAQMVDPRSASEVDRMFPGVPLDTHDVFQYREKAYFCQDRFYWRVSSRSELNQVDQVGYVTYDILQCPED
Write the answer as a number in µM, unit excluded.

CC1(C)C(C(=O)O)N(S(=O)(=O)c2ccc3c4c(oc3c2)CCCCC4)CCS1(=O)=O (centres unmarked)    70

Here is the next item to consider.
// query Fill blank: measured IC50 of the compound CC1(C)SCCN(S(=O)(=O)c2ccc3c4c(oc3c2)CCCC4)[C@H]1C(=O)NO is ____.
// result 0.21

Ref: patent US6555535B2
